Sourced from PubChem BioAssay AID2060607

# Test system: 876862-298-R-J1-PDC complex spheroids, viability % test/control;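 further: spheroids exposed to drugs for 7 days before readout; 100% = DMSO vehicle control wells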
# Procedure Text: Anticancer human tumor 876862-298-R-J1-PDC patient-derived endometrial carcinoma cell line growth inhibition [CLK]
# Settings: second compound 0.1 µM; first compound 10 µM; hits give low values
Could you please report measured viability, T/C for the items listed next?
One number for each entry, in %.

Dear reader, for each entry below, please note its viability, T/C.
1. CCCS(=O)(=O)Nc1ccc(F)c(C(=O)c2c[nH]c3ncc(-c4ccc(Cl)cc4)cc23)c1F + CNC(=O)c1ccc(Nc2nc(OC3CCCC3)c3c(-c4ccc5nc(C)oc5c4)c[nH]c3n2)c(OC)c1
2. C=CC(=O)N1CCN(c2nc(=O)n(-c3c(C)ccnc3C(C)C)c3nc(-c4c(O)cccc4F)c(F)cc23)C(C)C1 (stereo not drawn) + CNC(=O)c1ccc(Nc2nc(OC3CCCC3)c3c(-c4ccc5nc(C)oc5c4)c[nH]c3n2)c(OC)c1

26.6
41

Item under review: CC1COCCN1c1cc(C2(S(C)(=N)=O)CC2)nc(-c2ccnc3[nH]ccc23)n1 (stereo not drawn) + CN1CCN(c2cc(C(=O)Nc3cc4cc(-c5cnn(C)c5)ccc4cn3)ccn2)CC1 . Reported viability, T/C?
7.47
